// data source = paper PMC5620575

# experimentalProtocol: pharmacokinetics after single oral administration as microemulsion
# Assay type: in vivo
# settings: New Zealand White, plasma, rabbit, 20 mg/kg, n = 3
metricName: Cmax (ng/mL)
Answer with a number only, understood to be in ng/mL.

Q: Annotate the molecule "O=C1O[C@@H](Cn2ccnn2)CN1c1ccc(N2CCN(C(=O)C(F)(F)F)CC2)c(F)c1" with its measured Cmax.
A: 731

Q: Annotate the molecule "O=C1O[C@@H](Cn2ccnn2)CN1c1ccc(N2CCOCC2)c(F)c1" with its measured Cmax.
A: 2870

Q: Annotate the molecule CC(=O)NC[C@H]1CN(c2ccc(N3CCOCC3)c(F)c2)C(=O)O1 [Linezolid, reference compound] with its measured Cmax.
A: 3410

---

# experimentalProtocol: blood to plasma partition
# Format: in vitro ADME
# settings: heparinized whole blood; rabbit blood, 250 μg/L, 37 °C, n = 3
For each of the molecules below, state its blood plasma ratio at 1 h, 250 μg/L.
Output: the number by itself.

Q: Annotate the molecule "O=C1O[C@@H](Cn2ccnn2)CN1c1ccc(N2CCN(C(=O)C(F)(F)F)CC2)c(F)c1" with its measured blood plasma ratio at 1 h, 250 μg/L.
A: 0.772

Q: Annotate the molecule "O=C1O[C@@H](Cn2ccnn2)CN1c1ccc(N2CCOCC2)c(F)c1" with its measured blood plasma ratio at 1 h, 250 μg/L.
A: 0.96

---

# experimentalProtocol: pharmacokinetics after single IV administration
# Type: in vivo
# settings: White New Zealand, plasma, rabbit, 5 mg/kg, n = 4, read-out: Elimination rate constant (converted)
For each of the compounds below, state its k el.
Answer with a number only, understood to be in s⁻¹.

Q: Annotate the compound CC(=O)NC[C@H]1CN(c2ccc(N3CCOCC3)c(F)c2)C(=O)O1 [Linezolid, reference compound] with its measured k el.
A: 0.00022

Q: Annotate the compound "O=C1O[C@@H](Cn2ccnn2)CN1c1ccc(N2CCN(C(=O)C(F)(F)F)CC2)c(F)c1" with its measured k el.
A: 6.6e-05

Q: Annotate the compound "O=C1O[C@@H](Cn2ccnn2)CN1c1ccc(N2CCOCC2)c(F)c1" with its measured k el.
A: 0.000168
